System: Fer (mouse);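 further: 11-residue human phosphosite peptides and single-mutation variants displayed on the E. coli surface, counted by deep sequencing, each peptide's frequency after selection divided by its frequency in the unselected input library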;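 further: frequency after pTyr selection over input frequency; kinase dosed for 20-30% of maximal phosphorylation in three min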
Test: phosphorylation enrichment, bacterial display (enrichment ratio); higher = better substrate or ligand; peptides without Tyr show the background
Hi there, I'd appreciate the recorded phosphorylation enrichment for every entry that follows.
One number for each entry.

Check out these entries, answers already filled in.
[
  {
    "residue sequence": "FQEKSYIKGTS [LCTL_Y331_L326F]",
    "target entity": "Fer (mouse)",
    "phosphorylation enrichment": 0.355
  },
  {
    "residue sequence": "TQTPPYVKKHP [LARP1B_Y457]",
    "target entity": "Fer (mouse)",
    "phosphorylation enrichment": 0.439
  },
  {
    "residue sequence": "VITDYYVDMKF [MPP4_Y567]",
    "target entity": "Fer (mouse)",
    "phosphorylation enrichment": 1.4
  },
  {
    "residue sequence": "QEMMEYRRQIQ [DES_Y324_H326R]",
    "target entity": "Fer (mouse)",
    "phosphorylation enrichment": 0.644
  }
]

Quick batch: phosphorylation enrichment for everything below.
1. VPLATYMRIYK [RPL21_Y30]
2. VFLARYGPAWR [CYP2D6_Y124]

Response:
0.517
0.413

For each of the sequences below, state phosphorylation enrichment.
1. IKKLIYVFLVI [JAGN1_Y42_H44Y_YF]
2. NELTFYCCKKD [CD59_Y87_YF]

Response:
[0.454, 0.461]
